Catalogue of z-score readings, one per entry.
Experiment: HepG2 cell viability effects, profiling panel, calcein-AM fluorescence, 48 h, basal (AID 1164); note: test concentration not given here
Conditions: higher = more signal

| COMPOUND | z-score |
| --- | --- |
| CCN1C(C)=C(C(=O)OC)[C@@H](c2ccccc2)N2C(=O)[C@@]3(C(=O)OC)O[C@@]12[C@@H]1C(=O)CCC[C@@H]13 | -0.369 |
| CCCC/C=C/[C@H]([C@@H](O)Cc1ccccc1)N(CC#Cc1ccccc1)Cc1ccccc1Br | 0.632 |
| CCOC(=O)C1=C[C@@H](c2ccccc2)N(S(=O)(=O)c2ccc(C)cc2)[C@H]1c1ccc(F)cc1 | -2.67 |
| CCCC=C(CCC)[C@@H](NS(=O)(=O)c1cccc(C(F)(F)F)c1)c1ccc(C(=O)OC)cc1 | -1.07 |

These entries and their values trace back to PubChem BioAssay.
